I'd be grateful if you could share measured Activity for these entries.
System: J774.A1
Assay: Inhibition of nitric oxide production in LPS/IFNgamma-stimulated mouse J774A1 cells assessed as nitrites level at 26 uM by Griess method (reference value: 16.5 +/- 1.4 uM)
Assay type: functional
Use µM as the unit, but write only the number.

Please give measured Activity of the following entry: "CC1(C)O[C@H]2[C@@H](O1)[C@@H](COc1cc(O)c3c(=O)c(-c4ccc(O)cc4)coc3c1)O[C@@H]1OC(C)(C)O[C@@H]12" 0.7

Dear colleague, please send me the reported Activity for "O=c1c(-c2ccc(O)cc2)coc2cc(O)cc(O)c12" when you can. 14.5

Give the measured Activity for "CO[C@H]1O[C@H](COc2cc(O)c3c(=O)c(-c4ccc(O)cc4)coc3c2)[C@@H](O)[C@H](O)[C@H]1O" 14.3

###

Test system: J774.A1
Assay: Inhibition of nitric oxide production in LPS/IFNgamma-stimulated mouse J774A1 cells assessed as nitrites level at 26 uM by Griess method (reference value: 16.5 +/- 1.4 uM)
Type: functional
Give measured Activity for each item. Keep answers brief.
Write the number in µM without appending the unit.

Quick one: give measured Activity for "O=c1c(-c2ccc(O)cc2)coc2cc(OC[C@H]3O[C@H](O)[C@H](O)[C@@H](O)[C@H]3O)cc(O)c12" 9.1

Supply recorded Activity for "CO[C@H]1O[C@H](COc2cc(O)c3c(=O)c(-c4ccc(O)cc4)coc3c2)[C@@H](OC(C)=O)[C@H](OC(C)=O)[C@H]1OC(C)=O" here. 10.4

Assign Activity to the following record: "CO[C@H]1O[C@H](COc2ccc(-c3coc4cc(OC[C@H]5O[C@H](OC)[C@H](O)[C@@H](O)[C@@H]5O)cc(O)c4c3=O)cc2)[C@@H](O)[C@H](O)[C@H]1O" 8.5

Identify measured Activity corresponding to "CO[C@H]1O[C@H](COc2ccc(-c3coc4cc(OC[C@H]5O[C@H](OC)[C@H](OC(C)=O)[C@@H](OC(C)=O)[C@@H]5OC(C)=O)cc(O)c4c3=O)cc2)[C@@H](OC(C)=O)[C@H](OC(C)=O)[C@H]1OC(C)=O" 11.7

Consider the compound "CC1(C)O[C@H]2[C@@H](O1)[C@@H](COc1ccc(-c3coc4cc(OC[C@H]5O[C@@H]6OC(C)(C)O[C@@H]6[C@H]6OC(C)(C)O[C@H]65)cc(O)c4c3=O)cc1)O[C@@H]1OC(C)(C)O[C@@H]12" and give its recorded Activity. 12.3

###

I'd be grateful if you could share measured viability at 48 h, 6.5 µM for these entries.
Experiment: Cytotoxicity against LPS/IFNgamma-stimulated mouse J774A1 cells assessed as cell viability at 6.5 uM after 48 hrs by MTT method (reference value: 100 +/- 1.1%)
Type: cell-based, J774.A1
Details: read-out: Activity
Return type: number; implicit unit %.

Using the record for "CO[C@H]1O[C@H](COc2cc(O)c3c(=O)c(-c4ccc(O)cc4)coc3c2)[C@@H](OC(C)=O)[C@H](OC(C)=O)[C@H]1OC(C)=O" , state its measured viability at 48 h, 6.5 µM. 94.7

Quickly give me recorded viability at 48 h, 6.5 µM for "O=c1c(-c2ccc(O)cc2)coc2cc(OC[C@H]3O[C@H](O)[C@H](O)[C@@H](O)[C@H]3O)cc(O)c12" 93.6

Write down viability at 48 h, 6.5 µM measured for item "CO[C@H]1O[C@H](COc2ccc(-c3coc4cc(OC[C@H]5O[C@H](OC)[C@H](O)[C@@H](O)[C@@H]5O)cc(O)c4c3=O)cc2)[C@@H](O)[C@H](O)[C@H]1O" 99.9

Output measured viability at 48 h, 6.5 µM for this item: "CO[C@H]1O[C@H](COc2cc(O)c3c(=O)c(-c4ccc(O)cc4)coc3c2)[C@@H](O)[C@H](O)[C@H]1O" 68.1

Fill in reported viability at 48 h, 6.5 µM for this entry: "CO[C@H]1O[C@H](COc2ccc(-c3coc4cc(OC[C@H]5O[C@H](OC)[C@H](OC(C)=O)[C@@H](OC(C)=O)[C@@H]5OC(C)=O)cc(O)c4c3=O)cc2)[C@@H](OC(C)=O)[C@H](OC(C)=O)[C@H]1OC(C)=O" 82.1

Tell me measured viability at 48 h, 6.5 µM for "CC1(C)O[C@H]2[C@@H](O1)[C@@H](COc1cc(O)c3c(=O)c(-c4ccc(O)cc4)coc3c1)O[C@@H]1OC(C)(C)O[C@@H]12" please. 102

Consider the compound "CC1(C)O[C@H]2[C@@H](O1)[C@@H](COc1ccc(-c3coc4cc(OC[C@H]5O[C@@H]6OC(C)(C)O[C@@H]6[C@H]6OC(C)(C)O[C@H]65)cc(O)c4c3=O)cc1)O[C@@H]1OC(C)(C)O[C@@H]12" . State its measured viability at 48 h, 6.5 µM. 89.7

Input O=c1c(-c2ccc(O)cc2)coc2cc(O)cc(O)c12 [GENISTEIN] , output reported viability at 48 h, 6.5 µM. 112
